test system: RARb homodimer (NR concentration 270 nM); experiment: PBM binding z-score (relative to random genomic background probes); higher = stronger binding; sequences stand for … in GC…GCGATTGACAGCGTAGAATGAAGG
Rule: PBM binding z-score under 5 gives FALSE, otherwise TRUE.

Some solved entries appear below for comparison.
AGAATGAGGTCACCAAAGATCAGGGAAACGCTTG    FALSE
ATATGTAGGTTACATCCGGGTCATCCAGGCTATG    FALSE
CAAACAAGGTCACAGAGGTCAAAGTCCGTGCGTA    TRUE
CGTCCAAGGTCATAGGGGGTCAGTGAAGACAGAT    TRUE
CGTCAAAGGTCAACTAAGGTAACGTAAAGCACGC    TRUE
TCTCGGAGGACACCAAAGGTCAGAGCTCGACATC    FALSE

[Q] Does CGAACTACGTCATCCAGGACAGTGAATACATTGA have a reported PBM binding z-score of at least 5?
[A] FALSE

[Q] What would you report for ATCGAAAGGTCGAAGGTGCGTATACCCACCCGAA ?
[A] FALSE

====

system: THRa:RXRa (NR concentration 90 nM, RXRa partner concentration 90 nM); assay: PBM binding z-score (relative to random genomic background probes); higher = stronger binding; sequences stand for … in GC…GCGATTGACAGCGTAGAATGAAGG
# Lookup of reported PBM binding z-score keyed by entry
Please reply with the value in numeric form only.

AATACAAGGTCATCGTAGGCCAGAGTACGCACAG    4.47
CAAAATAGGTCACCGGAAGGTCAAAGTCCGCATG    4.65
TGTCAACGTTCAAAGGTAACGTAAGTATCCACAC    1.46

Now turn to the next sequence.
[Q] Which measured PBM binding z-score value corresponds to CGAACTAGGTCTAAGGACAGTGAAAGGCGACGTA ?
[A] 2.65

====

system: VDR homodimer (NR concentration 270 nM); test: PBM binding z-score (relative to random genomic background probes); higher = stronger binding; sequences stand for … in GC…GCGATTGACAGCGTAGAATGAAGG
PBM binding z-score reference

The examples below pair each entry with its known result.
ATATGTAGGTTAAAGGTCATTCAGGTTGGTTCGC    5.11
CGAACTAGGTCATCCAGGTCAGTGAATACATTGA    3.77
CGTCAAAGATCAAGGTAACGTAACAGAAAGCAGC    -0.275
CCTACTGGGCCAAAGAGGTCATTGATGCCGATAA    3.97
CTATGTAGGTTACGGGGGTCATTCAGTTTGAAAG    5.93

[Q] Using the record for TATCAAAGTTCAAAGGTAACGTAAGTATCCACAC , report its PBM binding z-score.
[A] 4.2

[Q] Another sequence to check: CTATGTAGGTCAAGGGGGTCATTCAGTTTGAAAG
[A] 7.37

[Q] Also check AGAATGAGATTACCAAAGATCAGGGAAACGCTTG
[A] -0.177

[Q] Could you do the same for ACTCGGATGACAAAGGTCAGAGCTACGCCAGTGA , please?
[A] 1.1

[Q] Would you mind doing CCTTAAGGGTCACGAGGTTATAGCACGACGAGCG as well?
[A] 2.91

====

test system: PXR homodimer (NR concentration 270 nM); test: PBM binding z-score (relative to random genomic background probes); higher = stronger binding; sequences stand for … in GC…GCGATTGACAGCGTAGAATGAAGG
I would appreciate it if you labelled entries t when PBM binding z-score is 0.5 or higher, otherwise f.

// below: answered sequences
GGAACGAGGTCATTCGAGTTGATAGCATGGCGAT    t
CGAACTAGGTCAAGGGACAGTGAAAGGCGACGTA    f
CTATGTAGGTTAAGGGAGTCATTCAGTTTGAAAG    f
ATATGTAGGTTAGGGGTCATTCAGGTTGGTTCGC    t

[Q] Would you say CGAACTAGGTCATCCAGGACCGTGAATACATTGA shows PBM binding z-score at minimum 0.5?
[A] f

[Q] Same question, TCTAGTCGGTCAAAGGTCACACACTCGAAATGCG this time
[A] t

[Q] And the next one, TAGCCTAGTTCATGCGGGCCAGTATAGTGTCGGC ?
[A] f

====

test system: PPARg DBDmut:RXRa IVT, anti-PPARg (DBD mutation: PPARg1 K132A/R137A, NR concentration 270 nM, RXRa partner concentration 90 nM); experiment: PBM binding z-score (relative to random genomic background probes); higher = stronger binding; sequences stand for … in GC…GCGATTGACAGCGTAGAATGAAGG
Property: PBM binding z-score; scope: individual sequences
Respond with the number and no other words.

ATCGAAAGGTCGAAGGTGAGCATACCCACCCGAA    0.377
TCTTGTAGATCAATAGAAGTTAAGAAAGTGCGCT    0.211
CGAACGAGGTCATGAGTTGATAGCAAATGCCGAT    1.73
CAAACGAGGTCACAGAGGTCAAAGTCCGTGCGTA    3.35

In the following, a different sequence is considered.
[Q] Fill in: PBM binding z-score of TCTAGTGGGTCAAAGGTCACACACTCGAAATGCG is ___
[A] 2.65

====

tested on: LXRb:RXRa (NR concentration 270 nM, RXRa partner concentration 90 nM); assay: PBM binding z-score (relative to random genomic background probes); higher = stronger binding; sequences stand for … in GC…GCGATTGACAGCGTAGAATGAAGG
Measured PBM binding z-score of individual entries
Form rule: numeric answer, no unit written next to it.

Recorded PBM binding z-score, per entry:
CAAACCAGGTCAAGAGGTCAAAGTCCGCTTCCCG    5.73
CCTTACGGGTCACTCCAGGTTATATCATCGGAGT    5.38
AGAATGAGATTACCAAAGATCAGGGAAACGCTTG    -0.266

Field: next sequence
[Q] # get_value(readout='PBM binding z-score', item= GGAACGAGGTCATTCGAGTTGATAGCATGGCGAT )
[A] 4.8

====

tested on: LXRb homodimer (NR concentration 270 nM); experiment: PBM binding z-score (relative to random genomic background probes); higher = stronger binding; sequences stand for … in GC…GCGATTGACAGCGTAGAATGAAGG
Reported PBM binding z-score values for the following sequences.
Reply: number alone, nothing else.

Field: example entries. Status: answers known.
CCGACGGGGGCAAAGGTTACCATACTCAGTACGA    5.6
CGTACAAGGTCAAAGGTCAGTGAAGAGATGACGG    2.4
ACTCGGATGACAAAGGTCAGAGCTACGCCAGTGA    0.503

[Q] Fill blank: measured PBM binding z-score of the sequence TAGCCTAGGTTATGGGCCAGTATACCACGCGAAC is ____.
[A] -0.441

[Q] Entry to check: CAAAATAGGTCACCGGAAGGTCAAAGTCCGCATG
[A] 1.73

[Q] # repeat for TTACCAAGGTCAAGGTCGTTGATCCCTCTGTAGA
[A] 1.11

[Q] Can you handle AATACAGGGTCATCGTAGGTCAGAGTACGCACAG next?
[A] 1.95

====

test system: RARb homodimer (NR concentration 270 nM); test: PBM binding z-score (relative to random genomic background probes); higher = stronger binding; sequences stand for … in GC…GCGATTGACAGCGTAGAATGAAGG
ATTRIBUTE MEASURED: PBM binding z-score

Here's what some known entries look like.
CCTAGCAGGCCAATCTAGGTCACTCAAGGCTTGA    2.68
CAAACTAGTTCAAGAGGTCAAAGTCCGCTTCCCG    4.85
TCTAGTTGGTCAAAGGTCACGCACTCGAAATGCG    5.32
AATACGGGGTCATCGTAGGCCAGAGTACGCACAG    4.48
GCTGCTAGGTCAACTGATGGCCAGCTAAAGCTCG    3.32
CCTACTGGGCCAAAAAGGTCATTGATGCCGATAA    4.43
TCTGCTAGGTCATCGATGGTCAGCTAATCTGCTA    3.19
CGTCTAAGGTCATAGGAGGTCAGTGAAGACAGAT    5.47
AGTCAAAGTTCATCTAGGTCACGTAAGATATGCT    5.12
TAGCCTAGGTCATGCGGGACAGTATAGTGTCGGC    2.99

Now examine the next entry.
[Q] If you can, please state the reported PBM binding z-score value of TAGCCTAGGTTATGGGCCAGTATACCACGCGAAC .
[A] 0.24

====

tested on: LXRb homodimer (NR concentration 270 nM); assay: PBM binding z-score (relative to random genomic background probes); higher = stronger binding; sequences stand for … in GC…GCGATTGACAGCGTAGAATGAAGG
ATTRIBUTE MEASURED: PBM binding z-score

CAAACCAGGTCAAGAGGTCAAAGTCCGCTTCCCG    1.8

[Q] Give the reported PBM binding z-score for ACTTAGGGGTCAACGAGGTTATAGCACGCGTATA (system: LXRb homodimer (NR concentration 270 nM)).
[A] 2.35

[Q] Try the sequence TAGCCTAGGTCACATCGGGCCAGTATACGCTATA
[A] 0.0362

[Q] Same question, CACACTAGGTCACAGAGGTCAAAGTCCGTGCGTA this time
[A] 2.87

[Q] And then AAAACAGGGTCATCGTAGGCCAGAGTACGCACAG , what is it?
[A] 1.32

[Q] Item: ATATGTAGGTTAGCTGGGGTCCTTCAGACTAGGC
[A] 0.384

[Q] Request: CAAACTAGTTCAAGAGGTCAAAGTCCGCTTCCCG
[A] 2.39

[Q] Next up: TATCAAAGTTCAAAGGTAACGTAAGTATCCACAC
[A] 3.08

[Q] Next: TAGCCTAGGTCATACAGGGGCCAGTATAGAAAGC
[A] 0.751

[Q] Also need CGTTCAAGGTCAAAGGTCAGTGAAGAGATGACGG , thanks.
[A] 2.52

[Q] Here is the next sequence: CGAACTAGGTCACCCAGGACAGTGAATACATTGA
[A] -0.274

[Q] Moving on to the next sequence: TCTGCTAGGTCAACGATGGTCAGTTAATCTGCTA
[A] 0.325

[Q] // repeat for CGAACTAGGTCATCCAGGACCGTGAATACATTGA and report
[A] -0.349

[Q] And then TGTCAATGTTCAAAGGTAACGTAAGTATCCACAC , what is it?
[A] 0.283

[Q] Entry to check: TGAATGAGGTTAAATATCAGGGAACGTGGCGTCG
[A] 0.686

[Q] // repeat for CCTCGGAGGACAACAGGAGGTCATAGCTGCCAGA and report
[A] -0.0136

[Q] Further, for CGTCCAAGGTCATTGGAGGTCAGTGAAGACAGAT ?
[A] 1.93

[Q] Also need CAAACGAGGTCACGAAAGGTCAAAGTCGAATGAC , thanks.
[A] 3.56

[Q] How about this sequence: CAAACGAGGTCAAGAGGTCAAAGTCCGCTTCCCG
[A] 2.92
